The measured values listed here are drawn from ChEMBL document CHEMBL5303711.

# method: Cytotoxicity activity against human HepG2 cells assessed by CellTiter-Glo luminescent cell viability assay.
# Format: toxicity, cell-based
# Parameters: assay stage confirmatory assay, source tissue liver
# condition_summary: HepG2 cells, read-out: IC50 relative
Activity calls are given as the source filed them. The rule behind the calls is not given here.
Select the correct class. Options are 1.0 (active), 0.0 (inactive) and nothing else.

Q: // return assay outcome for CC(C)n1nc(-c2ccc3oc(N)nc3c2)c2c(N)ncnc21 [SAPANISERTIB]
Result: 1.0

Q: // return assay outcome for "Cc1ccc(Sc2cccc3nc(N)nc(N)c23)cc1"
Result: 1.0

Q: // return assay outcome for "CC(C)(C)c1cc(NC(=O)Nc2ccc(Oc3ccnc4[nH]c(=O)cnc34)cc2F)n(-c2ccccc2)n1"
Result: 1.0

Q: // return assay outcome for Cc1ccc(NC(=O)CCN(C)CC2CCN(C)C2(C)C)cc1F (configuration not stated)
Result: 1.0

Q: // return assay outcome for "CC(C)c1ccc(CN(CCCN(C)C)CCCN(C)C)cc1"
Result: 1.0

Q: // return assay outcome for "O=C(N[C@H]1CCCc2sccc21)c1cccc2c1OCO2"
Result: 1.0

Q: // return assay outcome for N#Cc1ccc2[nH]cc(CCCCN3CCN(c4ccc5oc(C(N)=O)cc5c4)CC3)c2c1 [VILAZODONE]
Result: 1.0

Q: // return assay outcome for "COc1cccc(-c2cc(F)ccc2[C@H]2Cc3nc(N)nc(C)c3C(=O)N2)n1"
Result: 1.0

Q: // return assay outcome for "Cc1n[nH]c(C)c1CC(=O)Nc1cnn([C@@H](C)C2CC2)c1"
Result: 0.0

Q: // return assay outcome for "CC1(C)CC(=O)c2cn(-c3ccccc3)c(=O)c(C(=O)Nc3cccnc3)c2C1"
Result: 0.0

Q: // return assay outcome for CN(c1ccc(NC(=O)Nc2ccc(OC(F)(F)F)cc2)cc1)c1ccnc(Nc2cccc(S(N)(=O)=O)c2)n1 [GW806742X]
Result: 1.0

Q: // return assay outcome for CC/C(=C(\c1ccc(O)cc1)c1ccc(OCCN(C)C)cc1)c1ccccc1 [AFIMOXIFENE]
Result: 1.0

Q: // return assay outcome for "Cn1cc(C2=C(c3cn(CCCSC(=N)N)c4ccccc34)C(=O)NC2=O)c2ccccc21"
Result: 1.0

Q: // return assay outcome for "Cc1cc(C)cc(N2CCN(C(=O)c3cnn4ccccc34)CC2=O)c1"
Result: 1.0

Q: // return assay outcome for CCOc1ccc(S(=O)(=O)N2CC(C)CC(C)C2)cc1C (configuration not stated)
Result: 0.0

Q: // return assay outcome for "CCOc1ccc(S(=O)(=O)NCC2(C)CCNCC2)c2ccccc12"
Result: 1.0

Q: // return assay outcome for "CCN(c1ccccc1C)S(=O)(=O)c1cn(C)nn1"
Result: 0.0

Q: // return assay outcome for "c1ccc([C@H](CC2CCC2)NC2CCC3(CC2)OCCO3)cc1"
Result: 1.0

Q: // return assay outcome for "CC1CCN(CCNC(=O)c2c(O)c3sccc3n(Cc3ccccc3)c2=O)CC1"
Result: 0.0

Q: // return assay outcome for O=C(CCCCCCNC(=O)c1cnc(N(c2ccccc2)c2ccccc2Cl)nc1)NO [CITARINOSTAT]
Result: 1.0

Q: // return assay outcome for CCN(CC)c1cc(C)nc(Nc2ccc(NC(=O)C3CCCO3)cc2)n1 (configuration not stated)
Result: 1.0

Q: // return assay outcome for "O=S1(=O)C[C@H](NCCc2c[nH]c3ccccc23)[C@@H](S(=O)(=O)c2cccs2)C1"
Result: 0.0

Q: // return assay outcome for "COc1cc(F)ccc1NC(=O)c1ccc(-c2ccccn2)[nH]c1=O"
Result: 1.0

Q: // return assay outcome for CCCc1cc(C(=O)NCC2CN(C3CCN(C4CCC4)CC3)C(=O)CO2)n(C)n1 (configuration not stated)
Result: 0.0

Q: // return assay outcome for "COCC(=O)N1CCCN(Cc2ccc3c4c(cccc24)C(=O)OC3)CC1"
Result: 1.0

Q: // return assay outcome for "CN1CCCN(C(=O)Nc2ccc3c4c(cccc24)CC3)CC1"
Result: 1.0

Q: // return assay outcome for "CN(CC(=O)N(Cc1ccc(C2CCCCC2)cc1)c1ccc(C(=O)O)cc1)S(=O)(=O)c1c(F)c(F)c(F)c(F)c1F"
Result: 1.0

Q: // return assay outcome for "O=C1/C(=C/c2ccc([N+](=O)[O-])cc2)CS(=O)(=O)C/C1=C\c1ccc([N+](=O)[O-])cc1"
Result: 1.0

Q: // return assay outcome for "O[C@H]1CCN(Cc2csc(-c3ccoc3)n2)C12CCCC2"
Result: 1.0

Q: // return assay outcome for [H]/N=C(\N/C(=N/[H])NCCCCCCNC(=N)NC(=N)Nc1ccc(Cl)cc1)Nc1ccc(Cl)cc1 [CHLORHEXIDINE]
Result: 1.0

Q: // return assay outcome for "CCCC(=O)Nc1ccc(Nc2nc(C)cc(N(CC)CC)n2)cc1"
Result: 1.0

Q: // return assay outcome for "O=C(NCCc1ccco1)c1cc2ccccc2cc1O"
Result: 1.0
